Target: β1 receptor (cells expressing human ADRB1 gene) (Homo sapiens (Human))
Sequence (P08588 whole entry): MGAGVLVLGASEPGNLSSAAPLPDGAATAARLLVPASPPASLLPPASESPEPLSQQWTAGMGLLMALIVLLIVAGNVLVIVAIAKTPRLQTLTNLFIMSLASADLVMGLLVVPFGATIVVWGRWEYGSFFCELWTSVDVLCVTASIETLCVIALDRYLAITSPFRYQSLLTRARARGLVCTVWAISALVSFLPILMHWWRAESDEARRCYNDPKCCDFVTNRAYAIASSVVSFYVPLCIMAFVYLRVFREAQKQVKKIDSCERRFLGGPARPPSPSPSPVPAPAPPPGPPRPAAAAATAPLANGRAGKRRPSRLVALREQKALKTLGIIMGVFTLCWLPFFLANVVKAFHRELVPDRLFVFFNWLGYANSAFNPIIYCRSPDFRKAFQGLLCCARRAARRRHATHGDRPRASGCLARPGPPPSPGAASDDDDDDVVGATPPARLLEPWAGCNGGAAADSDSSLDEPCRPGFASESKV
Assay: Agonistic effect on β1 receptor by HTRF cAMP method
Format: cell-based
Method: β1 receptor is a G protein-coupled receptor, which is mainly coupled with Gs protein, and can activate adenylate cyclase activity through the Gs protein after being activated by binding to the ligand, thereby increasing the level of intracellular cAMP. In this experiment, the agonistic activity of the compounds against the β1 receptor in vitro was assayed by the cAMP kit. β1 cells (expressing human ADRB1 gene) from ICE Bioscience Inc. were grown under standard conditions. […]
Where a name gives a salt, the structure may show the parent alone.
Below is a list of entries, each paired with its recorded EC50 value.

{"columns": ["molecule", "EC50 [µM]"],
 "data": [
  ["CN(CCCn1nnc2cc(CNC[C@H](O)c3ccc(O)c4[nH]c(=O)ccc34)c3c(c21)COC3)[C@H]1CC[C@H](OC(=O)C(O)(c2cccs2)c2cccs2)CC1 [Formate salt of compound 40]", 0.0567],
  ["C[N+]1(CCCn2nnc3cc(CNC[C@H](O)c4ccc(O)c5[nH]c(=O)ccc45)c4c(c32)CCC4)CCC(OC(=O)C(O)(c2cccs2)c2cccs2)CC1 (stereo partly drawn) [Hydrobromide salt of compound 30]", 0.0949],
  ["O=C(OC1CC2(CCN(CCCn3nnc4cc(CNC[C@H](O)c5ccc(O)c6[nH]c(=O)ccc56)c5c(c43)CCC5)CC2)C1)C(O)(c1ccc(Cl)s1)c1ccc(Cl)s1 [Formate salt of compound 19]", 1.44],
  ["CN(CCCn1nnc2cc(CNC[C@H](O)c3ccc(O)c4[nH]c(=O)ccc34)c3c(c21)CCC3)[C@H]1CC[C@H](OC(=O)C(O)(c2cccs2)c2cccs2)CC1 [Trifluoroacetate salt of compound 1]", 0.0845],
  ["O=C(OC1CCC2(CC1)CN(CCCn1nnc3cc(CNC[C@H](O)c4ccc(O)c5[nH]c(=O)ccc45)c4c(c31)CCC4)C2)C(O)(c1cccs1)c1cccs1 [Formate salt of compound 4]", 0.304],
  ["O=C(OC1CC2(C1)CN(CCCn1nnc3cc(CNC[C@H](O)c4ccc(O)c5[nH]c(=O)ccc45)c4c(c31)CCC4)C2)C(O)(c1cccs1)c1cccs1 [Formate salt of compound 2]", 0.157]
]}

====

This section presents compounds with their documented pEC50 values.
biological target: β2 receptor (cells expressing human ADRB2 gene) (Homo sapiens (Human)); experiment: Agonistic effect on β2 receptor by HTRF cAMP method; type: cell-based
Sequence (P07550 whole entry): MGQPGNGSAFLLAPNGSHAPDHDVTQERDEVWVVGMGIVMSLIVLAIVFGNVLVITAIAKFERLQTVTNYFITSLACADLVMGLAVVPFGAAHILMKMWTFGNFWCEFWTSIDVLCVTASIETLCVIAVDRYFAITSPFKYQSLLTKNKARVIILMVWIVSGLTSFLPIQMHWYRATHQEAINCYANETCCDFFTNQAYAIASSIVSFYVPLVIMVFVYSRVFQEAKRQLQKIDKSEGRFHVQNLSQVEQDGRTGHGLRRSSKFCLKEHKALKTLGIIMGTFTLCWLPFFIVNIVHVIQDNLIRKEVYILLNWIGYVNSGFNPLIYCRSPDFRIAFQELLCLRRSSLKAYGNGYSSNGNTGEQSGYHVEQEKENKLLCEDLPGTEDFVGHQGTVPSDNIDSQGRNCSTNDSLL
pEC50: −log10 of the molar value. Structures can show the parent of a compound that is named as a salt.

{"columns": ["compound", "pEC50"],
 "data": [
  ["CN(CCCn1cnc2cc(CNC[C@H](O)c3ccc(O)c4[nH]c(=O)ccc34)c3c(c21)CCC3)[C@H]1CC[C@H](OC(=O)C(O)(c2cccs2)c2cccs2)CC1 [Formate salt of compound 41]", 7.86],
  ["CN(CCCn1nnc2cc(CNC[C@H](O)c3ccc(O)c4[nH]c(=O)ccc34)c3c(c21)OCO3)[C@H]1CC[C@H](OC(=O)C(O)(c2cccs2)c2cccs2)CC1 [Formate salt of compound 33]", 9.13],
  ["CN(CCCn1nnc2cc(CNC[C@H](O)c3ccc(O)c4[nH]c(=O)ccc34)c3c(c21)COC3)[C@H]1CC[C@H](OC(=O)C(O)(c2cccs2)c2cccs2)CC1 [Formate salt of compound 40]", 8.55]
]}

====

test: Pharmacokinetic evaluation in SD rats; type: in vivo; details: male, rat, plasma, inhaled or intranasal, 5 mg/kg, intra-tracheal 5 mpk vs intravenous 2 mpk, read-out: Bioavailability F for intra-tracheal administration with a nebulizer needle
Counter-ions that a name gives are not always drawn.
assay_metric: bioavailability

{"columns": ["molecule", "observed_value"],
 "data": [
  ["CN(CCCn1nnc2cc(CNC[C@H](O)c3ccc(O)c4[nH]c(=O)ccc34)ccc21)[C@H]1CC[C@H](OC(=O)C(O)(c2cccs2)c2cccs2)CC1 [Hydrofluoride salt of AZD8871, reference compound]", "76.7%"],
  ["CN(CCCn1nnc2cc(CNC[C@H](O)c3ccc(O)c4[nH]c(=O)ccc34)c3c(c21)CCC3)[C@H]1CC[C@H](OC(=O)C(O)(c2cccs2)c2cccs2)CC1 [Trifluoroacetate salt of compound 1]", "153%"]
]}
